- system: CD16B-NA2 (FcgRIIIb-NA2) (Homo sapiens, UniProt O75015)
- Sequence (O75015 17-200 limits assumed): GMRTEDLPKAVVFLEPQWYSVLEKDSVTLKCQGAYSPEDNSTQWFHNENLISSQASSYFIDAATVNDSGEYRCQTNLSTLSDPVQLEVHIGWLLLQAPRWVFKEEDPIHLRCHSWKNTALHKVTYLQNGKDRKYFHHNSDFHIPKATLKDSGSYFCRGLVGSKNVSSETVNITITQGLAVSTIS
- methodDescription: SPR, antibody binding to anti-his Fab captured FcgR-his (% Rmax)
- runParameters: 1 μM antibody
experimentalEndpoint: % Rmax hCD16B-NA2
Quick note: unit goes after the number.

| molecule | % Rmax hCD16B-NA2 |
| --- | --- |
| mAb12-IgG2.3 (protein, left off: another chain or arm of the molecule) constant: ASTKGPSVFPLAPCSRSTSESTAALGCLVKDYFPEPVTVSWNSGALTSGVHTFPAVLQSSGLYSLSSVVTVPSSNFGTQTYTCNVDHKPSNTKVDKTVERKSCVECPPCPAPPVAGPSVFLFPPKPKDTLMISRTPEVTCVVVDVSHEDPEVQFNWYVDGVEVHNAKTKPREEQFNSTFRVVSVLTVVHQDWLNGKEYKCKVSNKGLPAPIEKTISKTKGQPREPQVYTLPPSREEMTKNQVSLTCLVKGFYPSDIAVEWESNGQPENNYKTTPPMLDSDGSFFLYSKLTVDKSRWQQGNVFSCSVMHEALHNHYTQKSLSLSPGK | 0% |

// next item, % Rmax hCD16B-NA2 requested
Input: Quick one: % Rmax hCD16B-NA2 for mAb6-IgG2.5 (protein, left off: another chain or arm of the molecule) constant: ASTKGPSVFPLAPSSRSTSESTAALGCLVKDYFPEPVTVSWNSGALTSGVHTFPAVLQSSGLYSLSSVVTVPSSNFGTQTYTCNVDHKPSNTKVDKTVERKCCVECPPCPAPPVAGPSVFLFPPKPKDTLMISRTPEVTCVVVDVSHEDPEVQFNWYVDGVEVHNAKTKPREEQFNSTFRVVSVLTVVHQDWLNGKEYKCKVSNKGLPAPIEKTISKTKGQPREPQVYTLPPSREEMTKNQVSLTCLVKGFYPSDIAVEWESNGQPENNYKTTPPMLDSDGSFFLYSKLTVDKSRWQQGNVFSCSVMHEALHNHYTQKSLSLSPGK ?
Output: 0%
